// data source = the NIST ThermoML archive (doi:10.1021/je050414d)

# assayContext: 303.15 K; 101 kPa; Liquid
Numbers after ± are expanded uncertainties.
measurementType: mass density

INSERT INTO assay_data (molecule, result) VALUES
  ('CC(C)O', '776.15 ± 2.9 kg/m3'),
  ('Cc1ccccc1', '858.32 ± 2.1 kg/m3'),
  ('CO', '782.12 ± 2.8 kg/m3'),
  ('CCOC(=O)OCC [diethyl carbonate]', '962.39 ± 1.1 kg/m3');

====

Listed below: mass density values for each entry.
# assayContext: 323.15 K; 101 kPa; Liquid
measurementType: mass density (kg/m3)

INSERT INTO measurements (compound, recordednumber) VALUES
  ('CC(C)O [propan-2-ol]', 755.66),
  ('Cc1ccccc1 [toluene]', 838.75),
  ('CO [methanol]', 762.97),
  ('CCOC(=O)OCC [diethyl carbonate]', 939.78);
